tested on: STZ induced diabetic nephropathy in rats; assay: Study 4: HCQ and its combination with Losartan, Telmisartan, Azilsartan and Ramipril, with Glimepiride control; format: in vivo, Wistar rats; conditions: blood, Day42; dose mg/kg: HCQ 45, LT 11, RM 0.6, TL 9.5, AZ 4.5, alone or combined with HCQ 45
List of Glucose Day42 values.
Could you give the number and then its unit, please?

| Compound | Glucose Day42 |
| --- | --- |
| CCCCc1nc(Cl)c(CO)n1Cc1ccc(-c2ccccc2-c2nn[nH]n2)cc1 | 152.17 ± 7.28 mg/dL |
| CCOC(=O)[C@H](CCc1ccccc1)N[C@@H](C)C(=O)N1[C@H](C(=O)O)C[C@@H]2CCC[C@@H]21 | 157.67 ± 9.18 mg/dL |
| CCOc1nc2cccc(C(=O)O)c2n1Cc1ccc(-c2ccccc2-c2nc(=O)o[nH]2)cc1 | 158.67 ± 6.77 mg/dL |

## Task Fill in Glucose Day42 for record CCN(CCO)CCCC(C)Nc1ccnc2cc(Cl)ccc12 (centres unmarked) [Hydroxychloroquine]
## Result 154.17 ± 9.13 mg/dL

## Task Fill in Glucose Day42 for record "CCCc1nc2c(C)cc(-c3nc4ccccc4n3C)cc2n1Cc1ccc(-c2ccccc2C(=O)O)cc1"
## Result 159.83 ± 7.03 mg/dL

###

test system: STZ induced diabetic nephropathy in rats; assay: Study 3: HCQ and its combination with Losartan, Telmisartan, Azilsartan and Ramipril; format: in vivo, Wistar rats; details: dose mg/kg: LT 5.5, TL 5, AZ 2, RM 0.2, HCQ 22.5, alone or combined with HCQ 22.5; oral once daily 8 weeks
Threshold 0.6 mL/min. Creatinine clearance below it: Fulfilled. Creatinine clearance at it or above: Not fulfilled.

Observe how each entry below is paired with its result.
| Compound structure string | Class name |
| --- | --- |
| CCOC(=O)[C@H](CCc1ccccc1)N[C@@H](C)C(=O)N1[C@H](C(=O)O)C[C@@H]2CCC[C@@H]21 | Fulfilled |
| CCCc1nc2c(C)cc(-c3nc4ccccc4n3C)cc2n1Cc1ccc(-c2ccccc2C(=O)O)cc1 | Not fulfilled |

## Task Decide: Creatinine clearance of "CCOc1nc2cccc(C(=O)O)c2n1Cc1ccc(-c2ccccc2-c2nc(=O)o[nH]2)cc1" strictly below 0.6 mL/min?
## Result Not fulfilled

###

system: STZ induced diabetic nephropathy in rats; experiment: Study 3: HCQ and its combination with Losartan, Telmisartan, Azilsartan and Ramipril; assay type: in vivo, Wistar rats; settings: dose mg/kg: LT 11, TL 10, AZ 4, RM 2.3, HCQ 45, alone or combined with HCQ 45; oral once daily 8 weeks
Use 6 g/dL as the dividing line for Serum protein, with the line itself on the Criterion met side and lower values as Criterion not met.

Observe how each entry below is paired with its result.
| Compound | Class name |
| --- | --- |
| CCOC(=O)[C@H](CCc1ccccc1)N[C@@H](C)C(=O)N1[C@H](C(=O)O)C[C@@H]2CCC[C@@H]21 [Ramipril] | Criterion not met |
| CCCCc1nc(Cl)c(CO)n1Cc1ccc(-c2ccccc2-c2nn[nH]n2)cc1 [Losartan] | Criterion not met |
| CCCc1nc2c(C)cc(-c3nc4ccccc4n3C)cc2n1Cc1ccc(-c2ccccc2C(=O)O)cc1 [Telmisartan] | Criterion met |

Now look at this entry.
## Task Evaluate CCOc1nc2cccc(C(=O)O)c2n1Cc1ccc(-c2ccccc2-c2nc(=O)o[nH]2)cc1 [Azilsartan] : Serum protein at minimum 6 g/dL?
## Result Criterion met
